Provide the recorded ΔTm for the entries that follow.
Target: Peregrin (Homo sapiens) (UniProt P55201)
Sequence (whole entry): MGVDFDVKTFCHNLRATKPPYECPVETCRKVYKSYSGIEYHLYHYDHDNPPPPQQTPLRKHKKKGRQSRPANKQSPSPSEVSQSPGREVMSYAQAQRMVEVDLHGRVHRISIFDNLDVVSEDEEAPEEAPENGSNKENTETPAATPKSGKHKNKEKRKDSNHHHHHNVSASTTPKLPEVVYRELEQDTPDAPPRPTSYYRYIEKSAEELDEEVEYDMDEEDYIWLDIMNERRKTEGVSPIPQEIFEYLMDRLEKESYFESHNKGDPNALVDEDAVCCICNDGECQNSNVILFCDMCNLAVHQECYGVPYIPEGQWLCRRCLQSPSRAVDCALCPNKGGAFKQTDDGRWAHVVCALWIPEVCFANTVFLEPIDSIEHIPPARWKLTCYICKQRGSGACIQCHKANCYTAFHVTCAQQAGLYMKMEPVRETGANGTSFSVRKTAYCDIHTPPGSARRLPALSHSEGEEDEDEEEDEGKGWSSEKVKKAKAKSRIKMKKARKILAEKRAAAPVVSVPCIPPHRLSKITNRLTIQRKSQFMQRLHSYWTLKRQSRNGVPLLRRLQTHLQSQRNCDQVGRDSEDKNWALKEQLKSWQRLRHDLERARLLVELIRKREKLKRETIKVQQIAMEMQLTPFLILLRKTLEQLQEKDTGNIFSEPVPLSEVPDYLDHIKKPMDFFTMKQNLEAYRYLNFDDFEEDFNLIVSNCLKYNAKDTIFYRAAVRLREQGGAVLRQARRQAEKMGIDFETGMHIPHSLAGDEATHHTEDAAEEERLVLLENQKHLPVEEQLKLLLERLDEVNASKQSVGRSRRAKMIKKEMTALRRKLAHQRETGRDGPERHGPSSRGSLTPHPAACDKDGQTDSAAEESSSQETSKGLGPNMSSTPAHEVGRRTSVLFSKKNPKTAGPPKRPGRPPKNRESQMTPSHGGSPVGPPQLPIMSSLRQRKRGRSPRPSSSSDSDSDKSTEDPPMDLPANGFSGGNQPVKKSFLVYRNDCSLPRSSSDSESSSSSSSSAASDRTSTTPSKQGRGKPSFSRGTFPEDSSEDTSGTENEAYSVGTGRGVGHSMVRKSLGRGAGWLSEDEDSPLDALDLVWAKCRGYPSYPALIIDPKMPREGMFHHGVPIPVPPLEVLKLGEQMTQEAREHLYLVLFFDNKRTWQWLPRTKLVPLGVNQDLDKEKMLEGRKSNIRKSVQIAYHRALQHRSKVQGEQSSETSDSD
Conditions: Compound concentration 20.0 uM
Numbers only, in °C.

- Cc1n[nH]c(C)c1Cc1sc2c(c1C(=O)N1C[C@H](O)CO1)c(=O)n(C)c(=O)n2CC(C)C: 2.27

Hey, can you go through the list below and give me ΔTm for every item?
1. C[C@H]1CCCN1Cc1nc2cc(NC(=O)c3ccc4c(cnn4C)c3)ccc2[nH]1
2. O=c1[nH][nH]c(=O)c2cc(OCC3CCCCC3)ccc12
3. Cn1cc(C(=O)Nc2ccc([C@@H]3C[C@H]3NCC3CC3)cc2)cn1
4. CCC1CCCCN1C(=O)n1ncc(C(O)(c2ccccc2)c2ccccc2)n1 (stereo not given)

**Result**
-1.47
2.63
0.16
-0.98

----------
Molecular target: Peregrin (Homo sapiens)
Details: Compound concentration 20.0 uM
Where ΔTm equals or exceeds 0.8 °C, the correct label is yes (1); where it does not, the label is no (0).

• O=C(Nc1cc(C(F)F)ns1)Nc1cc(F)ncc1CO = yes (1)
• N#Cc1ccc(-c2csc(NN=C3CCCC3)n2)cc1 = no (0)

**Query** Dear colleague, could you confirm whether Cc1cc(-n2cccc2)c(S(C)(=O)=O)cc1C(=O)N=C(N)N has ΔTm at or above 0.8 °C?
**Result** yes (1)

**Query** Is reported ΔTm greater than or equal to 0.8 °C here: COC(=O)[C@@H]1CC2=CC(=O)CC[C@]2(C)[C@@]23O[C@@H]2C[C@@]2(C)[C@@H](CC[C@@]24CCC(=O)O4)[C@H]13
**Result** no (0)

**Query** Hi team, for NC(=O)c1cnc(N[C@@H]2CCCC[C@@H]2N)nc1Nc1cccc(-n2nccn2)c1 , is the recorded ΔTm at or above 0.8 °C?
**Result** no (0)

**Query** Tell me whether ΔTm is at least 0.8 °C here: Cc1cc(/N=N/c2ccc(S(=O)(=O)Nc3ccccn3)cc2)c(N)cc1O
**Result** yes (1)

**Query** Assess whether reported ΔTm for COc1c(CN)cc(CN)cc1OCCCN1Cc2ccccc2C1 sits at 0.8 °C or higher.
**Result** no (0)

**Query** Does the reported ΔTm for O=C(NCCCn1ccnc1)c1cc2nc(-c3ccccc3)cc(-c3ccccc3)n2n1 fall at or above the 0.8 °C mark?
**Result** no (0)

**Query** Identify whether the reported ΔTm of the following molecule is 0.8 °C or greater: CCOc1ccc(Cc2cc([C@@H]3O[C@H](CO)[C@@H](O)[C@H](O)[C@H]3O)ccc2Cl)cc1
**Result** no (0)

**Query** Record CCCOc1cc(OCCCCN(C)C)cc(Oc2cc3c(cc2NS(=O)(=O)c2ccc(OC)c(OC)c2)n(C)c(=O)n3C)c1 ; criterion: ΔTm no lower than 0.8 °C. Met?
**Result** yes (1)

**Query** Hello, I need to know if CC(C)C(=O)c1c(C(C)C)nn2ccccc12 has measured ΔTm not below 0.8 °C. Thanks!
**Result** no (0)

**Query** Given CCn1c(=O)c(C)cn(Cc2nnc(-c3ccc(F)c(O)c3F)s2)c1=O , state whether its ΔTm is at least 0.8 °C.
**Result** no (0)

----------
For each record, write down the corresponding ΔTm.
Target: Peregrin (Homo sapiens) (UniProt P55201)
Details: Compound concentration 20.0 uM

* O=C(C1CC1)N1CCN(Cn2sc3ccccc3c2=O)CC1 | -1.36 °C
* N#C[C@@H]1C[C@@H]2C[C@@H]2N1C(=O)[C@@H](N)C12CC3CC(CC(O)(C3)C1)C2 | -0.63 °C

I would be grateful if you could provide ΔTm for each of the following entries.
1. CN1CCN2c3c(cccc31)[C@@H]1CN(CCCC(=O)c3ccc(F)cc3)CC[C@@H]12
2. Cc1cc(C)c(CNC(=O)c2cc(Cl)c3c(c2C)O[C@@](C)([C@H]2CC[C@H](N(C)C)CC2)O3)c(=O)[nH]1
3. O=C(NO)c1ccc(CN(c2cnccn2)c2cnccn2)cc1
4. CS(=O)(=O)c1ncn2c(NCc3c(F)ccc4c3CCO4)ncc(-c3ccc(C4CC4)nc3)c12
5. O=[N+]([O-])c1c(Nc2cc(F)cc(Cl)c2)ccc2nonc12
6. CNC(=O)c1cnc(N2CCC[C@H](N)C2)nc1Nc1cc(C(C)C)nc(C(C)C)c1
7. CCCOc1ccc(CCc2nc3cc(-c4c(C)noc4C)ccc3n2CCN2CCOCC2)cc1

**Result**
["-0.19 °C", "-0.71 °C", "-0.86 °C", "-0.81 °C", "0.04 °C", "-0.82 °C", "-1.09 °C"]

----------
Biological target: UniProt:P55201
Sequence (whole entry): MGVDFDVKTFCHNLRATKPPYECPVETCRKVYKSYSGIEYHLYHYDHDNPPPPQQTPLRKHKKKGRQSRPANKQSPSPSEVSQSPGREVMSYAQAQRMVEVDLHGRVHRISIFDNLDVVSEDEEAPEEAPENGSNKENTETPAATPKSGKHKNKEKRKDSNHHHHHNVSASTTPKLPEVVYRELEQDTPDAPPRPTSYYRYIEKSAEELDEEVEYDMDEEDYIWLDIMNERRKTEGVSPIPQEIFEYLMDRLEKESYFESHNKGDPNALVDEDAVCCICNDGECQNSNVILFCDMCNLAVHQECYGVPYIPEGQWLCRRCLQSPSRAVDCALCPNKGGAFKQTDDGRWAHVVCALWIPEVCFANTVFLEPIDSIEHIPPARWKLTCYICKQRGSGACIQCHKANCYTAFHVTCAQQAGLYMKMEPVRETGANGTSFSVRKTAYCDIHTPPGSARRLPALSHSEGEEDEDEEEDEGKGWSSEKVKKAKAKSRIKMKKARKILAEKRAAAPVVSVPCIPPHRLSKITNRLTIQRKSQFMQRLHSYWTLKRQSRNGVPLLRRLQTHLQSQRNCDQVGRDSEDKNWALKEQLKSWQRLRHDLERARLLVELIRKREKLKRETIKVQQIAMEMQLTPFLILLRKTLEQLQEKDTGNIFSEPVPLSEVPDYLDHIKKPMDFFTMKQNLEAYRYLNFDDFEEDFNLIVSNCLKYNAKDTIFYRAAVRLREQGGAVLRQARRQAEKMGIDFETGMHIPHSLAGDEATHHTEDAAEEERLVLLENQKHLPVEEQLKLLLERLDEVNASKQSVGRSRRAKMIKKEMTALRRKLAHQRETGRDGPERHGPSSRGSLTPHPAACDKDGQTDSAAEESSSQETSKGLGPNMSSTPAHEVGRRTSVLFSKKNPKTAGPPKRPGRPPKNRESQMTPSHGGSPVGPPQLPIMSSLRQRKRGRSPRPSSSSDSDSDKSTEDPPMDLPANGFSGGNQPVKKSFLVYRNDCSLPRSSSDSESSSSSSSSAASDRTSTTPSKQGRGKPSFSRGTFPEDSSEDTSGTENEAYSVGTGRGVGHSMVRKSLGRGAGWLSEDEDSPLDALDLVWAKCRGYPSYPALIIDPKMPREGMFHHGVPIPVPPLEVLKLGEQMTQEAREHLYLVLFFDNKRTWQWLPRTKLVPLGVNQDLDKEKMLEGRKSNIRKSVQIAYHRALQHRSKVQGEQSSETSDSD
Conditions: Compound concentration 20.0 uM
Residues, ends and D or L forms follow the SMILES beside them. *: point of attachment. Cbz = O=C(OCc1ccccc1)*; CH2F = FC*
# ΔTm >= -0.5 °C gives condition met, anything below gives condition not met

# count of solved cases: 3
* O=C(CCl)Nc1ccc(S(=O)(=O)c2ccc(NC(=O)CCl)cc2)cc1 | condition met
* O=C(NC(Cc1ccccc1)C(=O)NC(Cc1ccccc1)C(=O)CF)OCc1ccccc1 (stereo not drawn) (Cbz-Phe-Phe-CH2F; configuration not given here) | condition met
* CCN(CC)C(=O)/C(C#N)=C/c1cc(O)c(O)c([N+](=O)[O-])c1 | condition met

**Query** Hello, I need to know if Cc1nc2ccccn2c1C(=O)CN1CCN(c2ccc(F)cn2)CC1 has measured ΔTm not below -0.5 °C. Thanks!
**Result** condition met

**Query** Test whether the molecule CC1=NN(c2ccc(C(=O)O)cc2)C(=O)/C1=C/c1ccc(-c2cc(C)c(C)cc2[N+](=O)[O-])o1 records ΔTm of -0.5 °C or higher.
**Result** condition not met

**Query** Given the entry C=CC(=O)Nc1cccc(-c2c[nH]cc2CN(C)CCN)c1 , answer whether its ΔTm meets or surpasses -0.5 °C.
**Result** condition not met

**Query** hey, is ΔTm for this one >= -0.5 °C? O=C(Cc1ccccc1)c1cc(O)c(O)c([N+](=O)[O-])c1
**Result** condition met

**Query** // inclusive: ΔTm at least -0.5 °C? input: Cc1ccc(N2C(=O)/C(=C/C=C/c3ccco3)C(=O)NC2=S)cc1Cl
**Result** condition not met

All values here come from ChEMBL document CHEMBL5724796.
